// values below are reported EC50
Target: 6His(GST)RORgamma-LBD (Homo sapiens, UniProt P51449)
Construct: the applied RORgamma-LBD contains a 6-His and GST tag; GST (N)
Sequence (P51449 269-508 limits assumed): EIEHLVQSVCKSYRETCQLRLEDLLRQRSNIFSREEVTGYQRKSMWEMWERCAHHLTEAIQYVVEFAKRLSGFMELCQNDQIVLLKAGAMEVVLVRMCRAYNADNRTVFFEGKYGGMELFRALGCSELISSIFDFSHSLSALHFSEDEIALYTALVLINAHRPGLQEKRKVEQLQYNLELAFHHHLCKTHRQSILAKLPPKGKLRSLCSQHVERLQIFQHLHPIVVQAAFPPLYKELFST
Experiment: TR-FRET assay (Protocol A), RORgamma-LBD / SRC1_2 co-activator peptide interaction
Conditions: SRC1_2 peptide 0.1 μM, RORgamma-LBD 10 nM, overnight incubation at 4° C.

compound	EC50
COc1cccc(F)c1C(=O)n1nc(-c2ccc(C(=O)O)cc2)c2ccccc21 [Example 11G]	60.3 nM
O=C(O)c1ccc(-c2nn(C(=O)c3c(Cl)cncc3Cl)c3ccccc23)cc1 [Example 11A]	339 nM
O=C(c1c(Cl)cccc1Cl)n1nc(-c2ccc(-c3nnn[nH]3)cc2)c2ccccc21 [Example 22]	5010 nM
O=C(O)c1ccc(-c2nn(C(=O)c3c(Cl)cccc3Cl)c3ccncc23)cc1 [Example 8]	4900 nM
O=C(O)c1ccc(-c2nn(C(=O)c3c(Cl)cccc3Cl)c3c(F)cccc23)cc1 [Example 3]	18.6 nM
O=C(O)c1ccc(-c2cn(C(=O)c3c(Cl)cccc3Cl)c3cccnc23)cc1 [Example 7]	14.1 nM
O=C(c1cccc(Cl)c1Cl)n1nc(-c2ccc(-c3nnn[nH]3)cc2)c2ccccc21 [Example 23]	1020 nM
O=C(O)c1ccc(-c2nn(C(=O)c3c(Cl)cccc3Cl)c3cccc(F)c23)cc1 [Example 4]	8.32 nM
O=C(O)c1ccc(-c2nn(S(=O)(=O)c3ccccc3Cl)c3ccncc23)cc1 [Example 16]	955 nM
O=C(O)c1ccc(-c2nn(C(=O)c3c(Cl)cccc3Br)c3ccccc23)cc1 [Example 11E]	26.9 nM
O=C(O)c1ccc(-c2nn(C(=O)c3c(Cl)cccc3Cl)c3cc(F)ccc23)cc1 [Example 5]	174 nM
O=C(O)c1ccc(-c2nn(C(=O)C3CCCCC3)c3ccccc23)cc1 [Example 11D]	525 nM
O=C(O)c1ccc(-c2nn(C(=O)c3c(Cl)cccc3Cl)c3ccc(F)cc23)cc1 [Example 2]	245 nM
Cc1cc(C)cc(S(=O)(=O)n2nc(-c3ccc(C(=O)O)cc3F)c3ccccc32)c1 [Example 17]	1230 nM
O=C(O)c1ccc(-c2nn(S(=O)(=O)c3ccccc3Br)c3ccccc23)cc1 [Example 13B]	79.4 nM
COC(=O)c1sccc1S(=O)(=O)n1nc(-c2ccc(-c3nnn[nH]3)cc2)c2ccccc21 [Example 21A]	389 nM
Cc1cccc(C)c1C(=O)n1nc(-c2ccc(C(=O)O)cc2)c2ccccc21 [Example 11I]	72.4 nM

Hello, the source for this data is patent US9884043B2, in case you need it.
